assay: Determination of kinetic solubility (pH 7.4); assay type: physicochemical; conditions: phosphate buffer, pH 7.4, aqueous buffer, kinetic from dmso stock, 50 mM phosphate buffer pH 7.4, read-out: Ksol, pH 7.4
measured_parameter: solubility kinetic at 2 h (µg/mL)

In [3]: df
Out[3]:
                                   molecule  result_value
0  N#CC[C@H]1CN(c2nc(OCC34CCCN3CCC4)nc3c2CCN(c2ccccc2C(F)F)C3)CCN1C(=O)/C=C/CN1CCOCC1          88.7

1. C[C@H]1CN(C/C=C/C(=O)N2CCN(c3nc(OC[C@@]45CCCN4C[C@H](F)C5)nc4c(F)c(-c5cccc(Cl)c5C(F)(F)F)ncc34)C[C@@H]2CC#N)C[C@H](C)O1
2. C#Cc1c(F)ccc2cccc(-c3ncc4c(N5CCN(C(=O)/C=C/CN6CCOCC6)[C@@H](CC#N)C5)nc(OC[C@@]56CCCN5C[C@H](F)C6)nc4c3F)c12
Of 1 and 2 , which shows the smaller solubility kinetic at 2 h value? // respond with label for picked entry
1
(1: 80.5 µg/mL, 2: 118 µg/mL)

###

experiment: Determination of logD (1-octanol / phosphate buffer pH 7.4); type: physicochemical; settings: 1-octanol/phosphate buffer, pH 7.4, pH 7.4, 1-octanol/phosphate buffer; read-out: Log D, pH 7.4
measured_parameter: logD

Past entries and their recorded results:
molecule	measured_parameter	result_value
N#CC[C@H]1CN(c2nc(OCC34CCCN3CCC4)nc3c2CCN(c2cccc4cccc(Cl)c24)C3)CCN1C(=O)/C=C/c1nc(C2CC2)no1 [Compound 23]	logD	3.38
N#CC[C@H]1CN(c2nc(OCC34CCCN3CCC4)nc3c(F)c(-c4cccc5ccc(F)c(Cl)c45)ncc23)CCN1C(=O)/C=C/CN1C[C@H]2C[C@@H]1CO2 [Compound 183]	logD	1.48
N#CC[C@H]1CN(c2nc(OC[C@@]34CCCN3C[C@H](F)C4)nc3c(F)c(-c4cccc(Cl)c4C(F)(F)F)ncc23)CCN1C(=O)/C=C/CN1CC2CC(C1)O2 [Compound 295]	logD	2.75
N#CC[C@H]1CN(c2nc(OC[C@@]34CCCN3C[C@H](F)C4)nc3c(F)c(-c4cccc5ccc(F)c(F)c45)ncc23)CCN1C(=O)/C=C/CN1CCOCC1 [Example 83]	logD	2.98
CC(C)c1noc(/C=C/C(=O)N2CCN(c3nc(OCC45CCCN4CCC5)nc4c3CCN(c3cccc5ccc(F)c(Cl)c35)C4)C[C@@H]2CC#N)n1 [Compound 126]	logD	4.24

P. Cc1cc(/C=C/C(=O)N2CCN(c3nc(OC[C@@]45CCCN4C[C@H](F)C5)nc4c(F)c(-c5cccc(Cl)c5C5CC5)ncc34)C[C@@H]2CC#N)nc(C)n1 [Compound 102]
Q. CN1CCN(C/C=C/C(=O)N2CCN(c3nc(OCC45CCCN4CCC5)nc4c3CCN(c3cccc5cccc(Cl)c35)C4)C[C@@H]2CC#N)CC1 [Compound 162]
Consider P and Q . Which of these has its logD at a higher number? Your answer should be the label of the entry you select.
P
(P: 3.98, Q: 1.97)

a. N#CC[C@H]1CN(c2nc(OCC34CCCN3CCC4)nc3c2CCN(c2cccc4cccc(Cl)c24)C3)CCN1C(=O)/C=C/c1ccncn1 [Example 10]
b. CCO[C@H]1CCN(C/C=C/C(=O)N2CCN(c3nc(OC[C@@]45CCCN4C[C@H](F)C5)nc4c(F)c(-c5cccc6cccc(Cl)c56)ncc34)C[C@@H]2CC#N)C1 [Compound 91]
When the recorded logD values are compared, which is smaller: that of a or that of b ? Lab log: write the label of the selected item as the result.
b
(b: 1.83, a: 2.93)

Value source: patent US20250129103A1
